- Test system: blackgrass
- test protocol: Test B pre/postemergence blackgrass
- Format: in vivo, Alopecurus myosuroides
- setup conditions: Postemergence, Rate 250 g/ha; scale 0 to 10, 0 no effect, 10 complete control
quantity kind: Blackgrass plant response rating
Number only, no unit.

Cc1nn(C)c(Cl)c1-n1c(=O)on(C(=O)N(c2ccccc2)C(C)C)c1=O | 2

Now examine the next entry.
# lookup: Blackgrass plant response rating of `CC(C)N(C(=O)n1oc(=O)n(C2CCCCC2)c1=O)c1ccc(F)cc1F`
6

* * *

- Test system: soybean
- test protocol: Test B pre/postemergence soybean
- Type: in vivo, Glycine max
- setup conditions: Preemergence, Rate 62 g/ha; scale of 0 to 10 where 0 is no effect and 10 is complete control
// values below are reported Plant response rating, Soybean
Number only, no unit.

CC(C)N(C(=O)n1oc(=O)n(CC(=O)C2CC2)c1=O)c1ccc(F)cc1F | 0

# lookup: Plant response rating, Soybean of `CC(C)N(C(=O)n1oc(=O)n(CC2CCC2)c1=O)c1ccc(F)cc1F`
0

# lookup: Plant response rating, Soybean of CC(C)N(C(=O)n1oc(=O)n(C(C)C(=O)c2ccccc2)c1=O)c1ccc(F)cc1F (centres unmarked)
0

# lookup: Plant response rating, Soybean of `CC(C)N(C(=O)n1oc(=O)n(CC(=O)C2CC2)c1=O)c1ccccc1`
0

# lookup: Plant response rating, Soybean of `CC(C)N(C(=O)n1oc(=O)n(CC(=O)N(C)C)c1=O)c1ccc(Cl)cc1`
0
